System: MALME-3M melanoma
Assay: NCI tumour cell line growth inhibition, 48 h
# key: entry, value: TGI

MOLECULE: O=c1oc2ccccc2n1P(=O)(n1c(=O)oc2ccccc21)n1c(=O)oc2ccccc21
TGI: > 100 µM
//
MOLECULE: COc1cc2c3c(c4ccc(OC)c(OC)c4c2cc1OC)CN1CCC[C@@H]1C3
TGI: 0.509 µM

Query :: Need TGI, item CC(C)/C(Cl)=N/OC(=O)Nc1cccc(C(F)(F)F)c1
Result :: 3.66 µM

Query :: One more molecule: CCNCCC1(CC)C(=O)NC(=O)NC1=O
Result :: > 100 µM

Query :: Also need CCSC1=N/C(=C\c2ccco2)C(NN)=N1 , thanks.
Result :: > 50 µM

Query :: Please answer likewise for CCOC(=O)[C@@H]1OC(c2ccccc2)O[C@H]1C(=O)OCC
Result :: > 100 µM

Query :: Ok, now O=c1[nH]c(=O)n(C2OC(CO)C(O)C2O)c2ncc(-c3ccc(-c4ccccc4)cc3)nc12 (configuration not stated)
Result :: > 20 µM

Query :: Now consider COCc1c(CO)cnc(C)c1OC1OC(CO)C(O)C(O)C1O (configuration not stated) and answer again.
Result :: > 100 µM

Query :: Then this molecule: CNC(=O)c1c(NC(=O)c2ccc(C(F)(F)F)cc2)sc2c1CCC(=O)C2
Result :: 3.88 µM

Query :: Follow-up entry: CO[C@H]1ON=C(c2c(C)cc(C)cc2C)[C@@H]1C1(c2ccccc2)ON=C(c2c(C)cc(C)cc2C)O1 (some centres not stated)
Result :: > 100 µM

Query :: Try this molecule too: O=C(Nc1ccc(Cl)cc1)NS(=O)(=O)c1coc2ccccc2c1=O
Result :: > 10 µM

Query :: Then what about the molecule COC(=O)C(=O)C(C(=O)C1=NS(=O)(=O)c2cc(S(N)(=O)=O)c(Cl)cc2N1)c1nc2ccc(C(=O)c3ccccc3)cc2[nH]c1=O (configuration not stated) ?
Result :: > 100 µM

Query :: And what about the molecule O=C1/C=C/[C@@H](O)[C@@H]2C[C@@H](O)C[C@H]2/C=C/CCC[C@H](CCc2ccc(C(F)(F)F)cc2)O1 ?
Result :: 2.88 µM

----------
Test system: ACHN renal
Assay: NCI tumour cell line growth inhibition, 48 h
Collected TGI values appear next to each entry.

Completed entries (count: 8):
MOLECULE: C=CCCCn1ccc2ccccc21
TGI: > 100 µM
--
MOLECULE: COC(=O)C(=O)C(C(=O)C1=NS(=O)(=O)c2cc(S(N)(=O)=O)c(Cl)cc2N1)c1nc2ccc(C(=O)c3ccccc3)cc2[nH]c1=O (stereo unspecified)
TGI: > 100 µM
--
MOLECULE: COc1ccc(/C=N/N=C(\N)NO)c(Cl)c1O
TGI: > 100 µM
--
MOLECULE: O=C(Nc1cccc(NC(=O)C(=O)C2CCC3=C(Sc4ccccc4N3)C2=O)n1)C(=O)C1CCC2=C(Sc3ccccc3N2)C1=O (stereo unspecified)
TGI: > 100 µM
--
MOLECULE: Cc1ccccc1N=CN(C)C
TGI: > 100 µM
--
MOLECULE: COc1ccccc1-c1cc(/C=C2\C(=O)Nc3ncc(Br)cc32)cc(Br)c1O
TGI: > 25 µM
--
MOLECULE: NC(=O)/C(=C\c1ccncc1)c1cccc2ccccc12
TGI: > 100 µM
--
MOLECULE: O=Cc1ccc(-c2ccc(-c3nc4ccccc4[nH]3)cc2)s1
TGI: 67.1 µM

Query :: Returns the measured TGI for the input molecule. Input: CNC1C(O)C(OC2C(N)CC(N)C(OC3OC(CN)=CCC3N)C2O)OCC1(C)O (stereo unspecified)
Result :: > 100 µM

Query :: Would you mind doing CCOC(=O)CC(=O)C(=O)NNC1=NCCN1 as well?
Result :: > 100 µM

Query :: Similarly, COc1ccc2oc(=Nc3ccccc3)c(C(N)=O)cc2c1 ?
Result :: 42 µM

Query :: Okay, and O=C(NO)c1ccc(OCc2cccc(Cl)c2)cc1 ?
Result :: 25 µM

----------
Tested on: MDA-MB-435
Test: NCI tumour cell line growth inhibition, 48 h
# cutoff 5 µM applies to TGI; >= gives condition met, < gives condition not met

COMPOUND: CNC(=O)c1c(NC(=O)c2ccc(C(F)(F)F)cc2)sc2c1CCC(=O)C2
DISCRETE LABEL: condition not met
--
COMPOUND: Cc1ccc(S(=O)(=O)Oc2ccc([N+](=O)[O-])cc2[N+](=O)[O-])cc1
DISCRETE LABEL: condition met
--
COMPOUND: c1ccc(CSC2(SCc3ccccc3)CCCC2)cc1
DISCRETE LABEL: condition met
--
COMPOUND: COc1cccc(Cn2c(-c3nonc3N)nc3ccccc32)c1
DISCRETE LABEL: condition not met
--
COMPOUND: COc1ccccc1-c1cc(/C=C2\C(=O)Nc3ncc(Br)cc32)cc(Br)c1O
DISCRETE LABEL: condition met
--
COMPOUND: c1ccc(N=C(N2CCOCC2)N(CCN2CCOCC2)c2ccccc2)cc1
DISCRETE LABEL: condition met
--
COMPOUND: COC(=O)[C@H]1[C@@H](O)[C@@]2(O)c3c(OC)cc(O[C@@H]4O[C@@H]([C@H](O)CO)CO[C@H]4OC)cc3O[C@@]2(c2ccc(OC)cc2)[C@@H]1c1ccccc1
DISCRETE LABEL: condition not met
--
COMPOUND: Cc1ccc2nc(N/N=C/c3ccc(C)s3)cc(C)c2c1
DISCRETE LABEL: condition met
--
COMPOUND: COC(=O)[C@H]1C(=O)[C@@]2(C)[C@H]([C@H](OC(=O)c3ccccc3)[C@]3(O)C[C@H](OC(=O)[C@H](O)[C@@H](NC(=O)c4ccc(F)cc4)c4ccccc4)C(C)=C1C3(C)C)[C@]1(OC(C)=O)CO[C@@H]1C[C@@H]2O
DISCRETE LABEL: condition not met
--
COMPOUND: O=C1OC2C(O)COC2(O)C1(O)C(C[N+](=O)[O-])c1ccc(Cl)cc1 (configuration not stated)
DISCRETE LABEL: condition not met

Query :: Dear colleague, could you confirm whether COc1c2c3ccccc3nc-2n(C)c2ccccc12 has TGI at or above 5 µM?
Result :: condition met

Query :: And [O-]c1c[n+](CCCC[n+]2cc([O-])on2)no1 ?
Result :: condition met

Query :: Next compound up: O=c1[nH]cc(/C=N\Nc2ccccc2)c(=O)[nH]1
Result :: condition met

Query :: Another compound to look at: O=Cc1ccc(-c2ccc(-c3nc4ccccc4[nH]3)cc2)s1
Result :: condition met

Query :: Another: COc1cc(C2SCC(=O)N2Cc2ccccc2)cc(OC)c1OC (configuration not stated)
Result :: condition met

Query :: Further, for COc1ccc(C2=Nn3c(nc4sc(C)c(C)c4c3=O)SC2)cc1 ?
Result :: condition met

Query :: Next entry: CC1=C(C(=O)Nc2ccccc2C)C(c2ccc(C3C(C(=O)Nc4ccccc4C)=C(C)NC(C)=C3C(=O)Nc3ccccc3C)cc2)C(C(=O)Nc2ccccc2C)=C(C)N1
Result :: condition met

----------
Test system: NCI-H23 lung
Test: NCI tumour cell line growth inhibition, 48 h
Kindly return Yes if reported TGI is no lower than 30 µM; return No if it is lower.

Observe how each entry below is paired with its result.
MOLECULE: O=Nc1c(-c2c(O)[nH]c3ccccc23)[nH]c2ccccc12
DISCRETE LABEL: Yes
//
MOLECULE: CCCc1cc(=O)oc2c(C=O)c(O)cc(O)c12
DISCRETE LABEL: Yes
//
MOLECULE: CCN1C(=O)N(CC)C2C1NN=c1s/c(=C\c3ccccc3F)c(=O)n12 (configuration not stated)
DISCRETE LABEL: Yes
//
MOLECULE: O=c1[nH]cc(/C=N\Nc2ccccc2)c(=O)[nH]1
DISCRETE LABEL: Yes
//
MOLECULE: CC1(C)Oc2ccc3c(=O)c(-c4ccccc4)c(-c4ccccc4)oc3c2C1C(=O)O (configuration not stated)
DISCRETE LABEL: Yes

Then this molecule:
Query :: Determine whether this molecule has TGI no lower than 30 µM: CCCCCN1CCN(c2ncccn2)CC1
Result :: Yes

----------
System: HOP-62 NSCLC
Experiment: NCI tumour cell line growth inhibition, 48 h; in the data active = GI50 below about 0.43 µM; inactive = the rest
Your answer must be one of the following: True (active), False (inactive)

COMPOUND: C[C@H](N)C(=O)N[C@@H]1[C@H]2C(=C(O)C[C@@H](O)[C@@H]2O)C(=O)O[C@]1(C)C(Cl)Cl
DISCRETE LABEL: True
//
COMPOUND: Cn1cc(-c2csc(-c3cn(C)c4ccc(Br)cc34)n2)c2cnccc21
DISCRETE LABEL: False
//
COMPOUND: COc1ccccc1/C=C/C(=O)c1c(O)cc2occc2c1OC
DISCRETE LABEL: False
//
COMPOUND: CCN(CC)c1ccc(C2CC(c3cc(OC)c(OC)c(OC)c3)=NN2)cc1 (centres undefined)
DISCRETE LABEL: False
//
COMPOUND: CC(/C=C/C(=O)c1sc(-n2nc(-c3ccccc3)cc2-c2ccccc2)nc1C)=C\c1ccccc1
DISCRETE LABEL: False
//
COMPOUND: Nc1ccccc1SC(CC(=O)c1ccccc1)c1ccc([N+](=O)[O-])cc1 (centres undefined)
DISCRETE LABEL: False

Query :: Which outcome was assigned to CCc1c2c(nc3cc4c(c(N)c13)OCO4)-c1cc3c(c(=O)n1C2)COC(=O)[C@]3(O)CC in this test?
Result :: True

Query :: Entry to check: COc1ccccc1-c1cc(/C=C2\C(=O)Nc3ncc(Br)cc32)cc(Br)c1O
Result :: False

Query :: Then O=C(CSc1nc2ccccc2nc1-c1ccccc1)Nc1ccc(Cl)cc1 ?
Result :: False
